Listed here are compounds together with their documented herbicidal effect rating, SAGPY.
test system: Sagittaria pygmaea, L.; assay: Postemergence weed control under flooded paddy conditions, SAGPY (Arrowhead (Pygmaea)); format: in vivo; settings: Rate 0.2500 kg/ha, rated three to four weeks after treatment
Please respond with just the number, no unit label.

// known answers, use as guide
CC(C)Oc1cccc(-c2nsc3ccc(-n4c(=O)cc(C(F)(F)F)n(C)c4=O)cc23)c1 : 6.0
C#CCOC(=O)C(C)(C)Oc1ccc(C)cc1-c1nsc2ccc(-n3c(=O)cc(C(F)(F)F)n(C)c3=O)cc12 : 3.0
COc1ccc(OC)c(-c2nsc3ccc(-n4c(=O)cc(C(F)(F)F)n(C)c4=O)cc23)c1 : 4.0
CCCCC(=O)c1nsc2ccc(-n3c(=O)cc(C(F)(F)F)n(C)c3=O)cc12 : 4.0
CCC(C#N)(CC)c1nsc2ccc(-n3c(=O)cc(C(F)(F)F)n(C)c3=O)cc12 : 9.0

Prompt line: Find herbicidal effect rating, SAGPY (Sagittaria pygmaea, L.) for the entry CCc1ccc(-c2nsc3ccc(-n4c(=O)cc(C(F)(F)F)n(C)c4=O)cc23)cc1
Response line: 6.0

Prompt line: Find herbicidal effect rating, SAGPY (Sagittaria pygmaea, L.) for the entry COc1c(-c2nsc3ccc(-n4c(=O)cc(C(F)(F)F)n(C)c4=O)cc23)ccc(C)c1C
Response line: 0.0

Prompt line: Find herbicidal effect rating, SAGPY (Sagittaria pygmaea, L.) for the entry COC(=O)COc1cc(C)c(C)cc1-c1nsc2ccc(-n3c(=O)cc(C(F)(F)F)n(C)c3=O)cc12
Response line: 4.0
